I'd be grateful if you could share measured AC50 for these entries.
# Tested on: E. coli ATCC 25922
# Construct: ATCC 25922
# ASSAY_PROCEDURE: microbe, parasite or virus in culture
# Set-up: Bacterial growth inhibition, OD600, dose-response in 384-well plates, AC50
# COND: Escherichia coli, ATCC25922, 24 h
Counter-ions that a name gives are not always drawn.
Number only, in µM; omit the unit.

// fetch E. coli ATCC 25922 AC50 for O=[N+]([O-])c1ccc(Sc2cccc[n+]2[O-])c2nonc12 [EOS100077, NSC228155]
19.1

// fetch E. coli ATCC 25922 AC50 for NCCOCCOCCNC(=O)Cc1ccc(Nc2nc(NCc3ccc(F)cc3)nc(NCC3CCCCC3)n2)cc1 [EOS100979, AP-III-A4(ENOBLOCK)]
46.9

// fetch E. coli ATCC 25922 AC50 for O=S(=O)(NCCNC/C=C/c1ccc(Br)cc1)c1cccc2cnccc12 [EOS101763, H-89 DIHYDROCHLORIDE]
65.9
